// Release lookup, one value per entry
Species on record: Rattus norvegicus
Test: Percent residual insulin release in rat pancreatic islets upon incubation with the compound (1 uM) at 37 degree C for 90 mins
Assay type: functional

structureSmilesString | Release
CC(C)NC1=NS(=O)(=O)c2cc(F)ccc2N1 | 47.3%
COc1cc2c(cc1Cl)NC(NC1CCC1)=NS2(=O)=O | 38.1%
COc1cc2c(cc1Cl)NC(NC(C)C)=NS2(=O)=O | 20.6%
CCNC1=NS(=O)(=O)c2cc(OC)c(Cl)cc2N1 | 38%
O=S1(=O)NC(NC2CCC2)=Nc2cc(Cl)c(Br)cc21 | 57.2%
O=S1(=O)NC(NC2CC2)=Nc2cc(Cl)c(Cl)cc21 | 92.5%
